Biological target: PfRKIP (Plasmodium falciparum, UniProt Q7KQK1)
Sequence (Q7KQK1 1-190): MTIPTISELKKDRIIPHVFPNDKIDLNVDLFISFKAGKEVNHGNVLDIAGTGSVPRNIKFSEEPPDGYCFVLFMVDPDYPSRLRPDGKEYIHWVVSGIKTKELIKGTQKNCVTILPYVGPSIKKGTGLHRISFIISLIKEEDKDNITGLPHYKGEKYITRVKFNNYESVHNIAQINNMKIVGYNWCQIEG
Experiment: ITC, sequential binding model
Conditions: read-out: K1; phosphate buffer pH 7.6, 25 °C; stronger site of two-site fit
Metric name: pKd
Give bare numbers, as −log10 of the molar value.

[in] Item CCCCCCCCCCCCCCCC(=O)OC[C@H](COP(=O)(O)O[C@@H]1[C@H](O)[C@H](OP(=O)(O)O)[C@@H](O)[C@H](O)[C@H]1O)OC(=O)CCCCCCCCCCCCCCC has what recorded pKd?
[out] 4.94
